Data origin: patent US6706266

Reported sPAP HepG2 B6 assay: Expt 1 EC50 values for the following binders.
- System Tested: T1, gp130 on HepG2 B6 cells (UniProt P40189 23-918, limits assumed)
- T1 sequence (looked up): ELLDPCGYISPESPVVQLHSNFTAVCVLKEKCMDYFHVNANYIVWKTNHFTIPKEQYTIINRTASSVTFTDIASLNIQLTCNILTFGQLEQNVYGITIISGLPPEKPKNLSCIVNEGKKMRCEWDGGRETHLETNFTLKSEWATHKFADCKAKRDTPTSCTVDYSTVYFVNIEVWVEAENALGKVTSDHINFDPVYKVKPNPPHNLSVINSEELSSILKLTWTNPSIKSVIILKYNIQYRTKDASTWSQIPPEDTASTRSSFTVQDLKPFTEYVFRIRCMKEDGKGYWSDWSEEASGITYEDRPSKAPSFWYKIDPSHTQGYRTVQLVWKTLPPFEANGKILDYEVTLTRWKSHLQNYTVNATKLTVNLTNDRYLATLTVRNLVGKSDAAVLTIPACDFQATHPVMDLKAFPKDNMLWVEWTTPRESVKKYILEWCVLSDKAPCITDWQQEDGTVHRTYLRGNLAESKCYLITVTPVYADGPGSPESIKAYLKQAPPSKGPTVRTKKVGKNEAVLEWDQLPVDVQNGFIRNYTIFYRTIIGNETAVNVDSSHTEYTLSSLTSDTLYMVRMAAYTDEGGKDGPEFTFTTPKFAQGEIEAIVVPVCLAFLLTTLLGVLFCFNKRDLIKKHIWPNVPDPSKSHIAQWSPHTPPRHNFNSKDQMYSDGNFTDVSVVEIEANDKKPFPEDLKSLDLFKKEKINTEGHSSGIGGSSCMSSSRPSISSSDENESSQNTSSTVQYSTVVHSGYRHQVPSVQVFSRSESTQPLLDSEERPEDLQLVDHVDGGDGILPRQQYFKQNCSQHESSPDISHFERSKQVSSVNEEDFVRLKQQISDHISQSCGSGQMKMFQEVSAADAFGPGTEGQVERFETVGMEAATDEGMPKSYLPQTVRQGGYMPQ
- Assay: cell-based or functional assay
Unit µg/mL implied. Number only.

OSM-GST mutant D26A (ligand, not shown: a dimerising Fc or GST; large carriers; small tags and cut ends, Alanine mutant of m4; also called (27)D26A; 27 D26A) AAIGSCSKEYRVLLGQLQKQTDLMQATSRLLDPYIRIQGLDVPKLREHCRERPGAFPSEETLRGLGRRGFLQTLNATLGCVLHRLADLEQRLPKAQDLERSGLNIEDLEKLQMARPNILGLRNNIYCMAQLLDNSDTAEPTKAGRGASQPPTPTPASDAFQRKLEGCRFLHGYHRFMHSVGRVFSKWGESPNRSRR | 0.0195

Turning to the following binder.
Asked: For the binder shown here, OSM-GST mutant N124A (ligand, not shown: a dimerising Fc or GST; large carriers; small tags and cut ends, Alanine mutant of m4; also called (23)N124A; 23 N124A) AAIGSCSKEYRVLLGQLQKQTDLMQDTSRLLDPYIRIQGLDVPKLREHCRERPGAFPSEETLRGLGRRGFLQTLNATLGCVLHRLADLEQRLPKAQDLERSGLNIEDLEKLQMARPNILGLRNAIYCMAQLLDNSDTAEPTKAGRGASQPPTPTPASDAFQRKLEGCRFLHGYHRFMHSVGRVFSKWGESPNRSRR , give the reported sPAP HepG2 B6 assay: Expt 1 EC50.
Given back: 0.0302
